# Assay system: bat RaTG12-CoV RBD (Bat coronavirus RaTG13 (printed as …, UniProt A0ABF7PLN6))

{"columns": ["Binder", "binding result"],
 "data": [
  ["GAR01 (antibody, V domains shown) VH: QVQLVQSEGGVVQPGRSLRLSCTASGFTFSSYGMHWVRQAPGKGLEWVALISYDGSDKYYADSVKGRFTISRDNSKNTLYLQMNSLRPEDTAVFYCAKGGWYGSSSGFDYWGQGTLVTVSS VL: DIQMTQSPSSLSASVGDRVTITCQASQDISNYLNWYQQKPGKAPKLLIYDASNLETGVPSRFSGSGSGTDFIFTISSLQPEDIATYYCQQYHDVPRTFGQGTKVEIK", "binds"],
  ["GAR16 (antibody, V domains shown) VH: EVQLVESGGGVVQPGGSLRLSCAASGFTFSNYDMHWVRQATGKGLEWVSAIGTAGDTYYPDSVKGRFTISRDNAKNSLYLQMNSLRAEDTAVYYCTRVVHSSDWTSWSAGIHNWFDSWGQGTLVTVSS VL: DIVMTQSPSSLSASVGDRVSITCRTSQSIRTYLNWYQQKPGKAPKLLIYASSSLQSGVPSRFSGSGSGTDFTLSISSLQPEDFATYYCQQSYSMPPWTFGQGTKLEIK", "binds"],
  ["GAR20 (antibody, V domains shown) VH: QVQLQQWGAGLLKPSETLSLTCAVYGGSFSDFYWSWIRQPPGKGLEWIGQIDHSGSPNYNPSLKSRVTMSVDTSKNHFSLRLTSMTAADTAVYYCAKGPRYGSGSFDPLGQGTLVTVSS VL: SYELTQPPSVSVAPGQTARITCGGDNIGSKTVHWYQQKPGQAPVLVVYDDGDRPSGIPERFSGSNPGNTATLTISRVEAGDEADYYCQVWDSSSDSVVFGGGTELTVL", "binds"]
]}
